Target: T1, HTRA3, P83110
T1 sequence (P83110 354-453, limits assumed, looked up): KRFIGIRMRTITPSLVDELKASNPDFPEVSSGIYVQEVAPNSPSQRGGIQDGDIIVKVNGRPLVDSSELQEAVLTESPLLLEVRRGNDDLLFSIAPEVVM
Assay: holdup assay
Set-up: key: below the threshold = too weak to quantify, mostly under pKd 3.1 to 4
Settings: plain residues with an end cap or a label only (N-terminal biotin on a linker: ado-ado)

{"columns": ["BINDER", "pKd"],
 "data": [
  ["QKNKDKEYYV [NRXN3_rs746444206, Q9Y4C0]", 4.64],
  ["GFGEERESIL [KIDINS220, Q9ULH0]", "below the threshold"],
  ["EEPEERHTEL [CES2, O00748]", "below the threshold"],
  ["FVHPILQSAV [PRKCA, P17252]", "below the threshold"],
  ["EDLTKNHDEL [RCN1, Q15293]", "below the threshold"],
  ["TETASVCTKV [SLC23A1, Q9UHI7]", "below the threshold"]
]}
